I'd appreciate it if you could supply pKd values for the items below.
Molecular target: T1, Met1-linked diUb (M1-Ub2) (human, UniProt P0CG47 1-76; P0CG47 1-76)
T1 construct: ubiquitin, human, first (distal) moiety of the linear diUb; ubiquitin, human, second (proximal) moiety, its Met1 joined to Gly76 of the first; Expressed from a human M1-Ub2 gene as one chain; source: E. coli Rosetta (DE3), pET26b, purified (heat step, ResourceS, Superdex75)
Test: SPR; untagged LRM1-UMI or UDM2ΔC covalently immobilised on CM5 by amine coupling (10 mM sodium acetate pH 4.0 or 4.5); Ub2 species injected; HBS-P, 25 °C; steady-state fit, 1:1 model
Details: both partners purified
Note on pKd: it is the negative log10 of concentration, concentration in mol/L.

Enquiry: GET /values?readout=pKd&item= EETEINFTQKLIDLEHLLFERHKQEEQDRLLALQLQKEVDKEQM (domain or fragment, human, UniProt Q8IYW5 419-462, looked up, RNF168, human, residues 419-462 (UDM2ΔC); also called UDM2ΔC (untagged); UAD–MIU2; source: E. coli Rosetta (DE3), purified (Glutathione Sepharose, HRV3C cleavage, ResourceQ, Superdex75)) [untagged RNF168 UDM2ΔC (residues 419-462)]
Return: 3.84

Enquiry: And then untagged RNF168 LRM1-UMI (residues 110-166) (domain or fragment, human, UniProt Q8IYW5 110-166, looked up, Printed as untagged; also called LRM1–UMI (untagged); source: E. coli Rosetta (DE3), purified) LSKPGELRREYEEEISKVAAERRASEEEENKASEEYIQRLLAEEEEEEKRQAEKRRR , what is it?
Return: 3.70
